System: Primary human T-cells
Experiment: Primary Human T-Cell Proliferation Assay Stimulated with IL-2 (CellTiter-Glo)
Format: cell-based
Details: primary human T-cell proliferation stimulated with IL-2; read-out: IC50, Example 42
The reader will find reported log10 IC50 values listed item by item below.
observation.type: log10 IC50 (log10 of the value in nM)

Cc1noc(COc2ccc(Nc3nc(Nc4cc(C)c(Cl)c(S(N)(=O)=O)c4)ncc3F)cc2)n1 [Compound I-265] : 1.60
Cc1nnc(COc2ccc(Nc3nc(Nc4cccc(S(N)(=O)=O)c4)ncc3F)cc2)o1 [Compound I-277] : 1.96
Cc1ccc(Nc2ncc(F)c(Nc3ccc(OC4CCCN(C)C4)cc3)n2)cc1S(N)(=O)=O (racemic) [II-4] : 3.37
CN1CCN(S(=O)(=O)c2cccc(Nc3ncc(F)c(Nc4ccc(OCC#N)cc4)n3)c2)CC1 [Compound I-19] : 3.02
CNS(=O)(=O)c1cc(Nc2ncc(F)c(Nc3ccc(OCc4ccncc4)cc3)n2)ccc1C [Compound I-195] : 2.10
Cc1ccc(Nc2ncc(F)c(Nc3cccc(OCC(N)=O)c3)n2)cc1S(N)(=O)=O [Compound I-90] : 3.34
Cc1ccc(Nc2ncc(F)c(Nc3ccc(OC4CCCN(C)C4)c(Cl)c3)n2)cc1S(N)(=O)=O (racemic) [II-3] : 2.96
CN1CCC(Oc2ccc(Nc3nc(Nc4cccc(S(N)(=O)=O)c4)ncc3F)cc2)C1 (stereo not shown) [II-9] : 3.12
Cc1cc(Nc2nc(Nc3cccc(S(N)(=O)=O)c3)ncc2F)ccc1OC(C)C(N)=O (racemic) [Compound I-120] : 2.45
Cc1ccc(Nc2ncc(F)c(Nc3cc(C)c(OCC#N)c(C)c3)n2)cc1S(N)(=O)=O [Compound I-27] : 2.96
N#CCOc1cccc(Nc2nc(Nc3cccc(S(N)(=O)=O)c3)ncc2F)c1 [Compound I-4] : 2.25
Cc1cc(COc2ccc(Nc3nc(Nc4cc(C)c(Cl)c(S(N)(=O)=O)c4)ncc3F)cc2)no1 [Compound I-218] : 2.06
Cc1nc(COc2ccc(Nc3nc(Nc4ccc(S(N)(=O)=O)cc4)ncc3F)cc2)no1 [Compound I-275] : 2.76
NS(=O)(=O)c1cccc(Nc2ncc(F)c(Nc3ccc(Cc4ccncc4)cc3)n2)c1 [III-70] : 2.23
Cc1ccc(Nc2ncc(F)c(Nc3ccc(OCc4ccccn4)cc3)n2)cc1S(N)(=O)=O [Compound I-160] : 2.39
N#CCCc1ccc(Nc2nc(Nc3cccc(S(N)(=O)=O)c3)ncc2F)cc1 [III-14] : 1.72

* * *

Tested on: Primary human T-cells
Assay: Primary Human T-Cell Proliferation Assay Stimulated with IL-2 (CellTiter-Glo)
Type: cell-based
Conditions: Homo sapiens, T-cell, primary human T-cells stimulated with IL-2, proliferation; read-out: IC50, Example 42
pIC50: −log10 of the molar value.
observation.type: pIC50

COc1ccc(Nc2nc(Nc3cc(C)c(OC)c(S(N)(=O)=O)c3)ncc2F)cc1Cl [VI-30] : 6.77
Cc1ccc(Nc2ncc(F)c(Nc3ccc(O)cc3)n2)cc1S(N)(=O)=O [VI-102] : 6.87
C#CCOC(=O)NCc1ccc(Nc2nc(Nc3ccc(C)c(S(N)(=O)=O)c3)ncc2F)cc1 [VI-73] : 5.70
C#CCn1ccc2cc(Nc3nc(Nc4ccc(C)c(S(N)(=O)=O)c4)ncc3F)ccc21 [IX-1] : 6.24
COc1c(C)cc(Nc2ncc(F)c(Nc3ccc(C(C)(C)C)cc3)n2)cc1S(N)(=O)=O [VI-37] : 5.97
COC(=O)c1ccc(Nc2nc(Nc3ccc(C)c(S(N)(=O)=O)c3)ncc2F)s1 [IX-46] : 5.86
N#CCN1C(=O)CSc2ccc(Nc3nc(Nc4ccc(S(N)(=O)=O)cc4)ncc3F)cc21 [Compound V-11] : 6.10
COc1ccc(Nc2nc(Nc3ccc(C)c(S(N)(=O)=O)c3)ncc2F)cc1Cl [VI-4] : 6.64

* * *

The reader will find reported IC50 values listed item by item below.
Test system: Primary human T-cells
Assay: Primary Human T-Cell Proliferation Assay Stimulated with IL-2 (CellTiter-Glo)
Assay type: cell-based
Conditions: Homo sapiens, T-cell, primary human T-cells stimulated with IL-2, proliferation; read-out: IC50, Example 42
observation.type: IC50 (nM)

COc1ccc(Nc2nc(Nc3ccc(S(N)(=O)=O)cc3)ncc2F)cc1Cl [VI-106] : 1200
COc1ccc(Nc2nc(Nc3ccc(C)c(S(N)(=O)=O)c3)ncc2F)nc1N [VII-9] : 2720
Cc1ccc(Nc2ncc(F)c(Nc3ccc(Cl)c(C(F)(F)F)c3)n2)cc1S(N)(=O)=O [VI-39] : 3140
Cc1ccc(Nc2ncc(F)c(Nc3ccc(Cl)c(Cl)c3)n2)cc1S(N)(=O)=O [VI-6] : 1450
COc1ccc(Nc2nc(Nc3ccc(Cl)c(S(=O)(=O)NC(C)=O)c3)ncc2F)cc1Cl [VI-12] : 1310
Cc1ccc(Nc2ncc(F)c(Nc3ccc(C(F)(F)F)cc3)n2)cc1S(N)(=O)=O [VI-50] : 944
NS(=O)(=O)c1cccc(Nc2ncc(F)c(Nc3ccc(CCCF)cc3)n2)c1 [VI-83] : 293
C#CCNS(=O)(=O)c1ccc(Nc2nc(Nc3ccc(C)c(S(N)(=O)=O)c3)ncc2F)cc1 [VI-76] : 783
N#CCc1c[nH]c2ccc(Nc3nc(Nc4cccc(S(N)(=O)=O)c4)ncc3F)cc12 [IX-13] : 430

* * *

System: Primary human T-cells
Experiment: Primary Human T-Cell Proliferation Assay Stimulated with IL-2 (CellTiter-Glo)
Type: cell-based
Conditions: Homo sapiens, T-cell, primary human T-cells stimulated with IL-2, proliferation; read-out: IC50, Example 42
The reader will find reported IC50 values listed item by item below.
observation.type: IC50 (nM)

NS(=O)(=O)c1cc(Nc2ncc(F)c(Nc3cccc4cccnc34)n2)ccc1F [VII-79] : 3200
Cc1cc2ccc(CNc3nc(Nc4cccc(S(N)(=O)=O)c4)ncc3F)cc2[nH]1 [Compound X-3] : 1090
NS(=O)(=O)c1cccc(Nc2ncc(F)c(Nc3ccc(C(=O)N4CCSCC4)cc3)n2)c1 [IX-34] : 576
NS(=O)(=O)c1cc(Nc2ncc(F)c(Nc3ccc(C(F)(F)F)c(Cl)c3)n2)ccc1Cl [VI-44] : 7310
C#CCOc1ccc(Nc2nc(Nc3ccc(N4CCN(C)CC4)c(S(N)(=O)=O)c3)ncc2F)cc1 [VI-70] : 311
COc1ccc(Nc2nc(Nc3ccc(C(C)C)c(S(N)(=O)=O)c3)ncc2F)cc1Cl [VI-45] : 1330
Cc1ccc(Nc2ncc(F)c(Nc3ccc4ncccc4c3)n2)cc1S(N)(=O)=O [VII-69] : 696
C#CCOc1ccc(Nc2nc(Nc3ccc(C)c(S(N)(=O)=O)c3)ncc2F)cc1F [VI-60] : 187

* * *

Tested on: Primary human T-cells
Assay: Primary Human T-Cell Proliferation Assay Stimulated with IL-2 (CellTiter-Glo)
Type: cell-based
Details: primary human T-cell proliferation stimulated with IL-2; read-out: IC50, Example 42
The reader will find reported IC50 values listed item by item below.
observation.type: IC50 (nM)

Cc1cc(Nc2nc(Nc3cccc(S(N)(=O)=O)c3)ncc2F)ccc1NC(=O)CC#N [Compound I-80] : 470
N#CCOc1ccc(Nc2nc(Nc3cccc(S(N)(=O)=O)c3)ncc2F)cc1F [Compound I-12] : 59.7
CCN(CC)CCNS(=O)(=O)c1ccc(Nc2ncc(F)c(Nc3ccc(OCc4cc(C)on4)cc3)n2)cc1 [Compound I-246] : 182
Cc1ccc(Nc2ncc(F)c(Nc3ccc(OC(C)C#N)cc3)n2)cc1S(N)(=O)=O (racemic) [Compound I-67] : 157

* * *

Test system: up-regulation of ICAM-1 (CD54) by IFNγ in A549 lung epithelial cells
Assay: A549 Epithelial Line Stimulated with IFNγ (ICAM-1 surface expression, FACS)
Type: cell-based, human
Details: Homo sapiens, A549, A549 epithelial line stimulated with IFNγ; ICAM-1 expression by FACS; read-out: IC50, Example 43
Protocol: The activity of the compounds of the invention may additionally be characterized by assaying the effect of the 2,4-substituted pyrimidinediamine compounds described herein on A549 lung epithelial cells and U937 cells. […] Therefore, using ICAM-1 expression as readout, test compound effects on different signaling pathways can be assessed in the same cell type. […] The up-regulation of ICAM-1 can be quantified by flow cytometry across a compound dose curve and EC50, values are calculated. […]
observation.type: IC50 (µM)

Cc1ccc(Nc2ncc(F)c(NCCc3ccc(-n4ccnc4)cc3)n2)cc1S(N)(=O)=O : 10.6
CN(C)C(=O)OCCc1ccc(Nc2nc(Nc3cccc(S(N)(=O)=O)c3)ncc2F)cc1 : 55.5
Cc1cc(COc2ccc(Nc3nc(Nc4cccc(S(=O)(=O)NCc5oc(=O)oc5C)c4)ncc3F)cc2)no1 : 11.1
Cc1cnc(Nc2ccc(Cl)c(S(N)(=O)=O)c2)nc1Nc1ccc(OCC(=O)N(C)C)c(Cl)c1 : 15.6
CNC(=O)OCCc1ccc(Nc2nc(Nc3cccc(S(N)(=O)=O)c3)ncc2F)cc1 : 25.5
Cc1cc(Nc2nc(Nc3ccc(S(=O)(=O)N4CCN(C)CC4)cc3)ncc2F)cc(C)c1OCC#N : 31
Cc1cnc(Nc2cccc(S(N)(=O)=O)c2)nc1Nc1ccc(OCC(=O)N(C)C)c(Cl)c1 : 3.24
NS(=O)(=O)c1ccc(Nc2ncc(F)c(Nc3ccc(OCCN4CCOCC4)cc3)n2)cc1 : 9.49
NC(=O)COc1ccc(Nc2nc(Nc3cccc(S(N)(=O)=O)c3)ncc2F)cc1Cl : 37.3
Cc1cc(Nc2nc(Nc3cccc(S(N)(=O)=O)c3)ncc2F)ccc1CCC#N : 6.64
Cc1ccc(Nc2nc(Nc3cccc(S(N)(=O)=O)c3)ncc2F)cc1OCCN1CCOCC1 : 5.77
COc1ccc(Nc2ncc(F)c(Nc3ccc(OCC#N)cc3)n2)cc1S(N)(=O)=O : 4.97
Cc1ccc(Nc2ncc(C)c(Nc3ccc(OCC#N)cc3)n2)cc1S(N)(=O)=O : 0.947
NS(=O)(=O)c1ccc(Nc2ncc(F)c(Nc3ccc(Cc4ccncc4)cc3)n2)cc1 : 8.26
Cc1cc(Nc2nc(Nc3ccc(C)c(S(N)(=O)=O)c3)ncc2F)ccc1CCC#N : 21.9
Cc1cnc(Nc2cccc(S(N)(=O)=O)c2)nc1Nc1ccc(OCC(N)=O)cc1 : 26
NC(=O)COc1ccc(Nc2nc(Nc3ccc(S(N)(=O)=O)cc3)ncc2F)cc1Cl : 31.1
Cc1ccc(Nc2ncc(C)c(Nc3ccc(OCC(N)=O)cc3)n2)cc1S(N)(=O)=O : 20.6
Cc1cnc(Nc2cccc(S(N)(=O)=O)c2)nc1Nc1ccc(OCC(=O)N(C)C)c(F)c1 : 91.5
